Target or system Epidermal growth factor receptor (Homo sapiens, UniProt P00533); metric IC50; compiled from varied reports.
One number for each entry, in nM.

[[record]]
smiles_structure = "C#Cc1cncc(-c2ccc(Nc3nc(Nc4cc(CC)c(N5CCC(N6CCN(C)CC6)CC5)cc4OC)ncc3Br)c(P(C)(C)=O)c2)n1"
unit_label = "nM"
readout_number = 22.1

[[record]]
smiles_structure = "Fc1ccc(Nc2ncnc3nc(Nc4ccc(CN5CCCCC5)cc4)sc23)cc1Cl"
unit_label = "nM"
readout_number = 8.9


Continue with the next molecule.
Bench note: what IC50 did CCN1CCN(C2CCN(c3ccc(Nc4nc(Nc5cccc6c5N(S(C)(=O)=O)CC6)c5cn[nH]c5n4)cc3F)CC2)CC1 show? 0.6

* * *

Target or system Epidermal growth factor receptor (Homo sapiens, UniProt P00533); metric IC50; compiled from varied reports.

Dear reader, for each entry below, please note its IC50.
1. Cc1ccc(Oc2ccc(Nc3ncnc4sc5c(c34)CCN(C(=O)/C=C/CN3CC(O)C3)C5)cc2C)cn1
2. COc1ccc(NC(=O)/C=C/CN(C)C)cc1Nc1ncc(C(F)(F)F)c(Nc2ccc3ccccc3c2)n1
3. C=CC(=O)Nc1cccc(-c2cccc3cnc(Nc4ccc(N5CCN(C)CC5)cc4F)nc23)c1

1. > 10000 nM
2. 2070 nM
3. < 100 nM

Dear reader, for each entry below, please note its IC50.
1. CN(C(=O)/C=C/CN(C)C1CC1)c1ccc(-n2c(=O)n(-c3ccc(Cl)cc3)c3c(N)ncnc32)cc1
2. CCNc1nc(-c2cccc(OC)c2)c(-c2ccnc(Nc3ccc(OC4CCN(CCS(C)(=O)=O)CC4)c(F)c3)n2)s1
3. COc1cc(N2CCN(C)CC2)ccc1Nc1ncc2c(n1)N(c1cccc(N)c1)C(=O)N(C)C2
4. COc1cc2ncnc(Nc3ccc(F)c(Cl)c3)c2cc1OCCCCCCC(=O)NO
5. COc1ccc(/C=C2\CCC/C(=C\c3cc(OC)cc(OC)c3)C2=O)cc1

1. > 10000 nM
2. 100 to 1000 nM
3. 100 to 1000 nM
4. < 100 nM
5. 18700 nM

* * *

pIC50: −log10 of the molar value.
Target or system Epidermal growth factor receptor (Homo sapiens); metric pIC50; compiled from varied reports.

Check out these entries, answers already filled in.
[[record]]
compound = "COc1cc2ncnc(Nc3ccc(O[C@H]4CO[C@H]5[C@@H]4OC[C@@H]5O)c(Cl)c3)c2cc1OC"
system_tested = "Epidermal growth factor receptor (Homo sapiens)"
observed_property = "pIC50"
result = "< 7.00"

[[record]]
compound = "Cc1ccc(Oc2ccc(Nc3ncnc4sc5c(c34)CCN(C(=O)/C=C/CN3CC(O)CO3)C5)cc2C)cn1 (centres unmarked)"
system_tested = "Epidermal growth factor receptor (Homo sapiens)"
observed_property = "pIC50"
result = "< 5.00"

[[record]]
compound = "C[C@@H](Nc1ncnc2[nH]c(-c3ccc(OCCNCCCCCCC(=O)NO)cc3)cc12)c1ccccc1"
system_tested = "Epidermal growth factor receptor (Homo sapiens)"
observed_property = "pIC50"
result = "> 7.00"

[[record]]
compound = "O=C1C(c2ccncc2)Cc2cnc(Nc3ccccc3)nc2N1c1ccccc1 (centres unmarked)"
system_tested = "Epidermal growth factor receptor (Homo sapiens)"
observed_property = "pIC50"
result = "> 5.00"

[[record]]
compound = "COc1ccccc1C(=O)NC(C)c1ccc(-c2nn(C3CCCC3)c3ncnc(N)c23)cc1 (centres unmarked)"
system_tested = "Epidermal growth factor receptor (Homo sapiens)"
observed_property = "pIC50"
result = "5.00 to 6.00"


Dear reader, for each entry below, please note its pIC50.
1. COc1cc(-n2c(=O)n(-c3cccc(N(C)C(=O)/C=C/CN(C)C)c3)c3ncnc(N)c32)ccc1C
2. C=CC(=O)Nc1cc(Nc2ncc(Cl)c(Nc3ccc4ccccc4c3)n2)c(OC)cc1N(C)CCNC
3. C=CC(=O)N1CCc2ccc(-c3c(-c4ccc(CN5CCOCC5)cc4)[nH]c4nccc(Cl)c34)cc21
4. CC(=O)N1CCN(c2ccc(Nc3nccc(-c4sc(C(C)C)nc4-c4cccc(NS(=O)(=O)c5cccc(C(F)(F)F)c5)c4)n3)cn2)CC1
5. C=CC(=O)N1CCC(Nc2cc(Nc3ccc(F)c(Cl)c3)ncn2)C1 (centres unmarked)
6. COc1ccc(NC(=O)/C=C/CN(C)C)cc1Nc1ncc(F)c(Nc2ccc3ccccc3c2)n1
7. C#Cc1ccc2c(P(C)(C)=O)c(Nc3nc(Nc4cc(OC)c(N5CCC(N6CCN(C)CC6)CC5)cc4C)ncc3Br)ccc2n1
8. CC=CC(=O)c1cccc(Nc2cc(Nc3ccc(Oc4ccccc4)cc3)ncn2)c1 (mixture of isomers)

1: < 5.00; 2: 8.51; 3: ≥ 7.00; 4: < 6.00; 5: ≥ 8.00; 6: 6.88; 7: 7.92; 8: ≥ 8.00

Dear reader, for each entry below, please note its pIC50.
1. CN(C)C/C=C/C(=O)Nc1cccc(Nc2cc(Oc3ccc(F)c(Cl)c3)ncn2)c1
2. Oc1ccc(/C=C/c2cc(-c3ccccc3F)[nH]n2)cc1
3. C#Cc1cccc(Nc2ncnc3cc(OC)cc(O[C@H]4CCN(C)CC4(F)F)c23)c1F (single isomer, unassigned)
4. COc1cc(N2CCC(N3CCN(C)C4(CC4)C3)CC2)ccc1Nc1nc(Nc2cccc3c2N(S(C)(=O)=O)CC3)c2cc[nH]c2n1

1. ≥ 8.00
2. < 5.30
3. > 8.00
4. 7.45
